# Tested on: PPARg homodimer (NR concentration 180 nM)
# protocol details: PBM binding z-score (relative to random genomic background probes); higher = stronger binding; sequences stand for … in GC…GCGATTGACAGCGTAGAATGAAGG
Assign PBM binding z-score to each entry below.
Enter a number only.

Query: Checklist item: PBM binding z-score tested on PPARg homodimer (NR concentration 180 nM), entry `CGGACTGGGGCAGAAAGGTTACCATACCATCCGG` , value?
Response: 1.44

Query: Checklist item: PBM binding z-score tested on PPARg homodimer (NR concentration 180 nM), entry `ATCGAAAGGTCGAATGTGAGTATACCCACCCGAA` , value?
Response: 1.56

Query: Checklist item: PBM binding z-score tested on PPARg homodimer (NR concentration 180 nM), entry `TGTATTAGTTGAAGGGCAACCGACGAGTCCGTTT` , value?
Response: 1.27

Query: Checklist item: PBM binding z-score tested on PPARg homodimer (NR concentration 180 nM), entry `TCATATAGGTAAAGGTGAGAGTCGAACGATATGA` , value?
Response: 0.906

Query: Checklist item: PBM binding z-score tested on PPARg homodimer (NR concentration 180 nM), entry `TCATATAGGTAAATGCTAGGTGAAAGGCCGATCT` , value?
Response: 1.13

Query: Checklist item: PBM binding z-score tested on PPARg homodimer (NR concentration 180 nM), entry `CGTCCAAGGTCAGAGAAGTCAGTGAATGCCGAGT` , value?
Response: 1.38

Query: Checklist item: PBM binding z-score tested on PPARg homodimer (NR concentration 180 nM), entry `CGTCCAAGGTCATAGCAGGTCAGTGAAGACAGAT` , value?
Response: 3.76

Query: Checklist item: PBM binding z-score tested on PPARg homodimer (NR concentration 180 nM), entry `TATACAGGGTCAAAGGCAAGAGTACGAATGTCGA` , value?
Response: 2.27

Query: Checklist item: PBM binding z-score tested on PPARg homodimer (NR concentration 180 nM), entry `CGAACTAGATCAAGGACAGTGAATCTCCGCACGC` , value?
Response: 0.0368

Query: Checklist item: PBM binding z-score tested on PPARg homodimer (NR concentration 180 nM), entry `ACTAGCAGGCCAAGTTTGGGTGACTCAAACAAAG` , value?
Response: -0.815

Query: Checklist item: PBM binding z-score tested on PPARg homodimer (NR concentration 180 nM), entry `CCTATTAGTTGACCATAAGGGCAACGGAAGCTCG` , value?
Response: 2.06

Query: Checklist item: PBM binding z-score tested on PPARg homodimer (NR concentration 180 nM), entry `TCAGACAGGTGAAGGTAACTAAGGTACGCAGTCG` , value?
Response: 0.309

---

# Tested on: PPARg DBDmut:RXRa IVT, anti-PPARg (DBD mutation: PPARg1 K132A/R137A, NR concentration 270 nM, RXRa partner concentration 90 nM)
# protocol details: PBM binding z-score (relative to random genomic background probes); higher = stronger binding; sequences stand for … in GC…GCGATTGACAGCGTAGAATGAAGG
Label t when PBM binding z-score is at or above 0.9; otherwise label f.

Query: Does `GCTAGCAGGCCATGTGGGTCACTCAATGACGGGC` have a reported PBM binding z-score of at least 0.9?
Response: f

Query: Does `ATCGAAAGGTCGAAGATGAGTATACCCACCCGAA` have a reported PBM binding z-score of at least 0.9?
Response: f

Query: Does `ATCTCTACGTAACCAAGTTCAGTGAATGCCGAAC` have a reported PBM binding z-score of at least 0.9?
Response: f

Query: Does `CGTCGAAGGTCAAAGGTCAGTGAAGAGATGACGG` have a reported PBM binding z-score of at least 0.9?
Response: t

Query: Does `CGTCCAAGGCCATAGGAGGTCAGTGAAGACAGAT` have a reported PBM binding z-score of at least 0.9?
Response: f

Query: Does `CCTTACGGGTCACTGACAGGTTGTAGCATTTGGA` have a reported PBM binding z-score of at least 0.9?
Response: f

Query: Does `ACTATCAGTTGAGACGAGGGCAACCGATAGGTTG` have a reported PBM binding z-score of at least 0.9?
Response: f

Query: Does `TCTTGTAGTTCAGCAGGTTAAGAAAGCTGGCCAA` have a reported PBM binding z-score of at least 0.9?
Response: f

Query: Does `TCGAGTAGGTTTGGGGCATTCAGAATGGCGTCGA` have a reported PBM binding z-score of at least 0.9?
Response: f

Query: Does `AGAATGAGGTTACCAAGGATCAGGGAAACGCTTG` have a reported PBM binding z-score of at least 0.9?
Response: t

Query: Does `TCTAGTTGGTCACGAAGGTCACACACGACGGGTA` have a reported PBM binding z-score of at least 0.9?
Response: t

Query: Does `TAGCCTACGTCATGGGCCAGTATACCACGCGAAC` have a reported PBM binding z-score of at least 0.9?
Response: f

Query: Does `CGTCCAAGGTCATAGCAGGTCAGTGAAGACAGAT` have a reported PBM binding z-score of at least 0.9?
Response: f

Query: Does `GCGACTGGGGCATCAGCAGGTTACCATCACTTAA` have a reported PBM binding z-score of at least 0.9?
Response: f

Query: Does `CGAACTAGCTCATCCAGGACAGTGAATACATTGA` have a reported PBM binding z-score of at least 0.9?
Response: f

Query: Does `CGTCCAAGGTCAAGGTCAGCGAAAGAGACTCGAA` have a reported PBM binding z-score of at least 0.9?
Response: f

Query: Does `AGAATGAGGTTACCCAAGATCAGGGAAACGCTTG` have a reported PBM binding z-score of at least 0.9?
Response: t

Query: Does `AGAATGACGTTACCAAAGATCAGGGAAACGCTTG` have a reported PBM binding z-score of at least 0.9?
Response: f

Query: Does `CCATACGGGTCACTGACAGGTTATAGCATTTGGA` have a reported PBM binding z-score of at least 0.9?
Response: f
